test system: UACC-257 melanoma; test: NCI tumour cell line growth inhibition, 48 h
Reported TGI values follow for various molecules

molecule="C=Cc1ccccc1 (tested in a mixture with another compound)" meas_value="> 75 µg/mL"
molecule="COC(=O)C(C(=O)C(=O)Nc1nc2ccc([N+](=O)[O-])cc2s1)c1nc2ccc(Cl)cc2[nH]c1=O (stereo not given)" meas_value="> 100 µM"
molecule=N=c1oc2c(O)c(O)ccc2cc1C(N)=O meas_value="> 100 µM"
molecule=Cn1c(=O)c2nc(N3CCOCC3)cnc2n(C)c1=O meas_value="> 100 µM"

Consider now this further molecule.
QUERY: Can you look up the measured TGI of N#CCCN(CCC#N)CCN(CCN(CCC#N)CCC#N)CCN(CCC#N)CCC#N for me?
RESULT: > 100 µM

* * *

system: MDA-MB-435; assay: NCI tumour cell line growth inhibition, 48 h
Reported GI50 values follow for various compounds

Here is how some compounds turned out for GI50.
compound=NCCOc1ncccc1/C=C1\c2ccccc2-c2ccc(F)cc21 experimental_readout=GI50 meas_value="1550 nM"
compound=COC1=CC(c2ccc[nH]2)=N/C1=C\c1[nH]c(C)c(C(=O)CCCCC(=O)NCc2ccccc2)c1C experimental_readout=GI50 meas_value="1610 nM"
compound="CCCCNCC(O)c1cc2c(Cl)cc(Cl)cc2c2cc(C(F)(F)F)ccc12 (configuration not stated)" experimental_readout=GI50 meas_value="1800 nM"
compound=Cc1cccc2c(C(=O)O[C@H](C(N)=O)[C@]3(C)CO3)cccc12 experimental_readout=GI50 meas_value="4750 nM"
compound=FC(F)(F)c1ccc(-c2cnc(Cl)nc2NC2CCCCCC2)cc1 experimental_readout=GI50 meas_value="> 100000 nM"
compound=Cn1cc(-c2nc3c(F)cc4[nH]ncc4c3c3c2CCCC3)c(C(F)(F)F)n1 experimental_readout=GI50 meas_value="5360 nM"

Consider now this further compound.
QUERY: Can you look up the measured GI50 of O=C1Nc2ccccc2/C1=C/C(=N/c1nnc(-c2ccccc2)s1)c1ccccc1 for me?
RESULT: 2960 nM

* * *

tested on: NCI/ADR-RES ovarian; experiment: NCI tumour cell line growth inhibition, 48 h
Reported TGI values follow for various molecules

molecule=O=C(/C=C/c1ccsc1)c1ccc(Cl)cc1 meas_value="> 100 µM"

QUERY: Can you look up the measured TGI of CC1=CN(c2ccccc2)S2=C1c1sc3c(c1N2c1ccc(Br)cc1)CCCC3 (stereo not drawn) for me?
RESULT: > 100 µM

QUERY: Param item: COC(=O)CCCC(=O)NC1=C(Nc2ccc(OC)cc2)C(=O)c2ccccc2C1=O
RESULT: 71.1 µM

* * *

test system: PC-3 prostate; test: NCI tumour cell line growth inhibition, 48 h
experimental.readout: TGI

compound="CCC/C=C/C=C/C(=O)OC1C(C)C2(O)C3C=C(C)C(=O)C3CC(COC(C)=O)=CC2C2C(C)(C)C12OC(=O)C(C)C (centres undefined)" system_name="PC-3 prostate" experimental_readout=TGI meas_value="27.3 µM"
compound=N#CCCN(CCC#N)CCN(CCN(CCC#N)CCC#N)CCN(CCC#N)CCC#N system_name="PC-3 prostate" experimental_readout=TGI meas_value="> 100 µM"
compound=CC(C)(/C=N\O)NO system_name="PC-3 prostate" experimental_readout=TGI meas_value="> 10 µM"

Consider now this further compound.
QUERY: Can you look up the measured TGI of N#CCCOc1cccc(C2(N3CCCCC3)CCCCC2)c1 for me?
RESULT: > 100 µM

* * *

system: SF-539 CNS; test: NCI tumour cell line growth inhibition, 48 h
experimental.readout: TGI

compound=OCc1nnn2c1CCC2 meas_value="> 100 µM"
compound="CCOC(=O)NC1C2CC(=O)C(O2)C1OCc1ccccc1 (centres undefined)" meas_value="> 100 µM"
compound="COc1ccccc1N1C(=O)/C(=C\\c2cc(OC)c(OC)c(OC)c2)SC1c1ccccc1 (centres undefined)" meas_value="> 100 µM"

Consider now this further compound.
QUERY: Hello, I am looking for reported TGI with SF-539 CNS for Oc1ccc(-c2nn3c(CCCCCCCCc4nnc5sc(-c6ccc(O)cc6)nn45)nnc3s2)cc1 . Could you help?
RESULT: > 100 µM

* * *

tested on: 786-0 renal; test: NCI tumour cell line growth inhibition, 48 h
experimental.readout: TGI

molecule=COc1ccc2nc3ccccc3c(NCCN(C)CCCl)c2c1 meas_value="1.89 µM"
molecule=Cn1cc(-c2nc3c(F)cc4[nH]ncc4c3c3c2CCCC3)c(C(F)(F)F)n1 meas_value="27.7 µM"

Consider now this further molecule.
QUERY: Can you look up the measured TGI of O=C(O/N=C1/CCCC/C1=C\c1ccccc1)c1ccc(Cl)c(Cl)c1 for me?
RESULT: 96.2 µM

* * *

test system: 786-0 renal; assay: NCI tumour cell line growth inhibition, 48 h
experimental.readout: TGI

Here is how some compounds turned out for TGI.
compound="CC(C)C1CNC2N1C(=O)C2(C)OCc1ccccc1 (stereo unspecified)" experimental_readout=TGI meas_value="> 100 µM"
compound=Cc1cc2c([nH]1)CSc1cc(S(=O)(=O)c3ccccc3)c(=O)[nH]c1-2 experimental_readout=TGI meas_value="> 100 µM"
compound=Cc1c(C(=O)OCc2ccccc2)[n+](=O)c2ccccc2n1[O-] experimental_readout=TGI meas_value="> 100 µM"

QUERY: Can you look up the measured TGI of N#C/C(=C\c1cc(F)cc(F)c1)c1ccccn1 for me?
RESULT: > 10 µM

QUERY: Param item: CCCC[C@@H](C)/C=C1\CN2CCC[C@H]2[C@@](C)(O)[C@@H]1O
RESULT: > 100 µM

QUERY: Param item: CCC(Cc1cnc2nc(N)nc(N)c2n1)c1ccc(C(=O)NC(CCC(=O)O)C(=O)O)cc1 (stereo unspecified)
RESULT: > 100 µM

* * *

system: COLO 205 colon; assay: NCI tumour cell line growth inhibition, 48 h
Reported TGI values follow for various compounds

Here is how some compounds turned out for TGI.
compound="C=CCNC(=O)N1CC(C)C(=O)Nc2ccccc21 (stereo not drawn)" meas_value="> 100 µM"
compound=[O-]c1ccccc1/C=N/c1nccs1.[O-]c1ccccc1/C=N/c1nccs1.[O]=[U+2]=[O] meas_value="> 100 µM"

Consider now this further compound.
QUERY: Hello, I am looking for reported TGI with COLO 205 colon for c1ccc(-c2cc(-c3cccs3)c(-c3cccs3)s2)cc1 . Could you help?
RESULT: > 100 µM

* * *

system: HCC-2998 colon; assay: NCI tumour cell line growth inhibition, 48 h
Reported TGI values follow for various molecules

Here is how some molecules turned out for TGI.
molecule=CC(=O)c1sc2c(c1OC(=O)c1ccc(Cl)cc1)c(=O)n(-c1ccccc1)c(=S)n2-c1ccccc1 meas_value="> 58.3 µM"
molecule=O=C(O/N=C1/CCCC/C1=C\c1ccccc1)c1ccc(Cl)c(Cl)c1 meas_value="> 100 µM"
molecule=Cc1cc(-c2ncc(-c3cccnc3)cc2/C=C/c2ccccc2)cnc1-c1cccnc1 meas_value="> 100 µM"
molecule=CCN1CCC(Oc2c(C#N)ncc3[nH]c4ncccc4c23)CC1 meas_value="> 50 µM"
molecule=O=C(NCCCCNC(=O)OCc1ccc2c(Cl)cc(Cl)c(O)c2n1)OCc1ccc2c(Cl)cc(Cl)c(O)c2n1 meas_value="> 100 µM"
molecule="COCN1C(=O)C2CC(/C=C/C(N)=O)=CN2C(=O)c2ccccc21 (configuration not stated)" meas_value="> 100 µM"
molecule=ClCCC[Si]12OCCN(CCO1)CCO2 meas_value="> 100 µM"
molecule="CCC12CCCN3CCc4c(n(c5ccccc45)C(O)(C(=O)OC)C1)C32 (configuration not stated)" meas_value="> 100 µM"
molecule=N#CCCN(CCC#N)CCN(CCN(CCC#N)CCC#N)CCN(CCC#N)CCC#N meas_value="> 100 µM"
molecule="CC(=O)OCC1OC(n2c(-c3ccc(C)cc3)cc(-c3ccco3)c(C#N)c2=S)C(OC(C)=O)C(OC(C)=O)C1OC(C)=O (configuration not stated)" meas_value="> 100 µM"

QUERY: Can you look up the measured TGI of COC(=O)C(CC(=O)c1ccccc1)c1ccccc1NC(C)=O (configuration not stated) for me?
RESULT: > 100 µM

QUERY: Param item: CCOC(=O)c1nc2cc(C(F)(F)F)ccc2nc1Nc1cc(OC)c(OC)c(OC)c1
RESULT: > 100 µM

* * *

system: HS 578T breast; test: NCI tumour cell line growth inhibition, 48 h
experimental.readout: TGI

compound=COc1ccc2c(c1)C(=O)c1c-2n(CCCCl)c(=O)c2cc(OC)c(OC)cc12 experimental_readout=TGI meas_value="> 100 µM"
compound="COc1cccc(C2c3cc4c(cc3OC(NNc3ccccc3)C2C)OCO4)c1O (stereo unspecified)" experimental_readout=TGI meas_value="34.5 µM"
compound="CC(=O)OCC1OC(n2c(-c3ccc(C)cc3)cc(-c3ccco3)c(C#N)c2=S)C(OC(C)=O)C(OC(C)=O)C1OC(C)=O (stereo unspecified)" experimental_readout=TGI meas_value="> 100 µM"
compound=COc1ccc(Nc2nccc(Nc3ccc4[nH]ncc4c3)n2)cc1 experimental_readout=TGI meas_value="> 100 µM"
compound=COc1cc(-c2n[nH]nc2-c2ccc3c(c2)OCCO3)cc(OC)c1OC experimental_readout=TGI meas_value="64.2 µM"
compound="CCOC(=O)CCC(C(=O)OCC)n1nnc2ccc(Nc3c(C)[n+]([O-])c4ccc(Cl)cc4[n+]3[O-])cc21 (stereo unspecified)" experimental_readout=TGI meas_value="> 100 µM"

QUERY: Can you look up the measured TGI of OCCN1c2ccccc2Sc2ccccc21 for me?
RESULT: > 10 µM

QUERY: Param item: N#C/C(=N/Nc1nc[nH]c1C(N)=O)C(=O)Nc1ccccc1
RESULT: > 100 µM

QUERY: Param item: O=C(N/S(=N/S(=O)(=O)c1ccc(Br)cc1)C(Cl)(Cl)Cl)c1ccccc1 (stereo unspecified)
RESULT: > 100 µM

QUERY: Param item: COC(OC)(c1ccccc1)C(Br)Br
RESULT: > 100 µM

QUERY: Param item: COc1ccc(/C=C(\C#N)c2ccc(OC)cc2)cc1
RESULT: > 100 µM

meta.source: PubChem BioAssay (NCI)
